Tested on: Staphylococcus
Assay: Antibacterial activity against coagulase-negative Staphylococcus clinical isolate by broth microdilution method
Assay type: functional
MIC90 reference
API: value field is a number in µg/mL; no unit string.

// worked examples, MIC90 included
INSERT INTO results (smiles_representation, result) VALUES
  ('C/C(=C\c1cc(F)c(OC[C@H](F)C2CC2)cc1F)C(=O)N[C@@H]1[C@H](O)[C@@H](O)[C@H]2OCO[C@H]2[C@@H]1O', 2),
  ('C[C@H]1COc2c(N3CCN(C)CC3)c(F)cc3c(=O)c(C(=O)O)cn1c23.C[C@H]1COc2c(N3CCN(C)CC3)c(F)cc3c(=O)c(C(=O)O)cn1c23.O', 32),
  ('CC(=O)NC[C@H]1CN(c2ccc(N3CCOCC3)c(F)c2)C(=O)O1', 2);

Turning now to a further compound:
Task: Consider the compound "CN[C@H](CC(C)C)C(=O)N[C@H]1C(=O)N[C@@H](CC(N)=O)C(=O)N[C@H]2C(=O)N[C@H]3C(=O)N[C@H](C(=O)N[C@H](C(=O)O)c4cc(O)cc(O)c4-c4cc3ccc4O)[C@H](O)c3ccc(c(Cl)c3)Oc3cc2cc(c3O[C@@H]2O[C@H](CO)[C@@H](O)[C@H](O)[C@H]2O[C@H]2C[C@](C)(N)[C@H](O)[C@H](C)O2)Oc2ccc(cc2Cl)[C@H]1O" and give its measured MIC90.
Result: 2
